Target: SARS-CoV-2 spike protein, B1.1.7 (alpha variant), borne on lentiviral pseudovirus (SARS-CoV-2, B1.1.7)
Assay: cell-based or functional assay
Below, each entry is listed alongside its reported Pseudo Neut, B1.1.7 IC50 (pM).
State just the number; it will be interpreted in pM.

Worked cases, Pseudo Neut, B1.1.7 IC50 (pM) given:
Measured Pseudo Neut, B1.1.7 IC50 (pM), antibody 2020 (antibody, V domains shown) VH: QVQLVQSGAEVKKPGASVKVSCKASGYTFTDYFMHWVRQAPGQGLEWMGWVNPLSGGTNFAQKFQGRVTMTSDTSITTVYMELSRLRSDDTAVYYCARDPPLYSSTYGMDVWGQGTTVTVSS VL: QSALTQPASVSGSPGQSITISCTGTSSDVGAYNYVSWYQQHPGKAPKLMIYDVSDRPSGVSNRFSGSKSGNTASLTISGLQAEDEADYYCSSYTISSSVVFGGGTKLTVL : 13

Pseudo Neut, B1.1.7 IC50 (pM) reading for antibody 1871 (antibody, V domains shown) VH: EVQLVESGGGLVKPGGSLRLSCVASGFSFSIYSMNWVRQAPGKGLEWVSYISSSSSYKYYADSVKGRFSVSRDNAKNSLYLQLNGLRAEDTAVYYCARDGYCPKGVCTYYGMDVWGQGTTVTVSA VL: EIVMTQSPATLSVSPGERVTLSCRASQSVRSRLAWFQQKPGQAPRLLIYDASIRATGIPARFSGSGSGTEFTLIISSLQSEDFAVYYCQQYDNWPPAYTFGQGTKLEIK : 110

---
For this binder ( antibody 1589 (antibody, V domains shown) VH: EVQLVESGGGLIQVGGSLRLSCAASGLTVTSNYMNWVRQGPGKGLEWVSLIYSGGTTYYADSVKGRFTISRDDSKNTLYLQMNSLRAEDTAVYYCARPIVGARSGMDVWGQGTAVTVSS VL: DIQMTQSPSSLSASVGDRVTITCQASQDINKYLNWYQQKPGKAPKLLIYDASNLETGVPSRFSGSGSGTDFTFTISSLQPEDLATYYCHQFDNLPGTFGGGTKVEIK ), measured Pseudo Neut, B1.1.7 IC50 (pM) is 133

Cited source for all entries: patent US20230382979A1
